Source listed as ChEMBL document CHEMBL2407007.

Reported Activity values for a set of compounds
- Assay procedure: Antioxidant activity assessed as PYR quenching after 180 mins by HPLC analysis
- Type: functional
- Design: concentration or dose not given beside the values
Parameter: Activity (%)

• NC(=O)[C@H](Cc1cnc[nH]1)NC(=O)[C@@H](N)CS = 27.7
• COC(=O)[C@H](Cc1cnc[nH]1)NC(=O)[C@@H](N)CC(N)=O = 1
• COC(=O)[C@@H](Cc1cnc[nH]1)NC(=O)[C@@H](N)CS = 40.8
• NC(=O)[C@@H](Cc1cnc[nH]1)NC(=O)[C@@H](N)Cc1ccccc1 = 0.7
• C[C@@H](O)[C@H](N)C(=O)N[C@@H](Cc1cnc[nH]1)C(N)=O = 1.42
• COC(=O)[C@@H](Cc1cnc[nH]1)NC(=O)[C@@H](N)CC(N)=O = 1.14
• COC(=O)[C@@H](Cc1cnc[nH]1)NC(=O)[C@@H](N)C(C)C = 3.62
• NC(=O)[C@@H](Cc1cnc[nH]1)NC(=O)[C@@H](N)CC(=O)O = 1.16
• NC(=O)[C@H](Cc1cnc[nH]1)NC(=O)[C@@H](N)Cc1cnc[nH]1 = 7.86

###

- Assay procedure: Antioxidant activity assessed as PYR quenching after 180 mins by HPLC analysis
- Format: functional
- Design: concentration or dose not given beside the values
# reported Activity; entries follow
Parameter: Activity (%)

• NC(=O)[C@@H](Cc1cnc[nH]1)NC(=O)[C@@H](N)CS = 37.2
• C[C@@H](O)[C@H](N)C(=O)N[C@H](Cc1cnc[nH]1)C(N)=O = 6.62
• NC(=O)[C@@H](Cc1cnc[nH]1)NC(=O)[C@@H](N)Cc1c[nH]c2ccccc12 = 0.13
• NCCC(=O)N[C@@H](Cc1c[nH]cn1)C(=O)O = 5.57
• COC(=O)[C@@H](Cc1cnc[nH]1)NC(=O)[C@@H](N)Cc1ccc(O)cc1 = 1.29
• COC(=O)[C@H](Cc1cnc[nH]1)NC(=O)[C@@H](N)CCSC = 2.61
• NC(=O)CC[C@H](N)C(=O)N[C@@H](Cc1cnc[nH]1)C(N)=O = 2.65
• COC(=O)[C@H](Cc1cnc[nH]1)NC(=O)[C@@H](N)CCC(=O)O = 0.76
• COC(=O)[C@@H](Cc1cnc[nH]1)NC(=O)[C@@H](N)CCC(=O)O = 0.73
• COC(=O)[C@@H](Cc1cnc[nH]1)NC(=O)[C@@H](N)CCSC = 3.11
• NC(=O)[C@H](Cc1cnc[nH]1)NC(=O)[C@@H](N)Cc1c[nH]c2ccccc12 = 1.86
• NC(=O)[C@@H](Cc1cnc[nH]1)NC(=O)[C@@H](N)Cc1cnc[nH]1 = 7.28
• NC(=O)CC[C@H](N)C(=O)N[C@H](Cc1cnc[nH]1)C(N)=O = 1.57
• COC(=O)[C@@H](Cc1cnc[nH]1)NC(=O)[C@@H](N)Cc1c[nH]c2ccccc12 = 5.81
• COC(=O)[C@H](Cc1cnc[nH]1)NC(=O)[C@@H](N)CCCCN = 1.87
